Assay: self-splicing fitness, log relative to wild type (ln ratio); higher = more splicing; Tetrahymena group I intron in knt gene, E. coli kanamycin selection, DiMSum; sequences stand for … in CUCUCU…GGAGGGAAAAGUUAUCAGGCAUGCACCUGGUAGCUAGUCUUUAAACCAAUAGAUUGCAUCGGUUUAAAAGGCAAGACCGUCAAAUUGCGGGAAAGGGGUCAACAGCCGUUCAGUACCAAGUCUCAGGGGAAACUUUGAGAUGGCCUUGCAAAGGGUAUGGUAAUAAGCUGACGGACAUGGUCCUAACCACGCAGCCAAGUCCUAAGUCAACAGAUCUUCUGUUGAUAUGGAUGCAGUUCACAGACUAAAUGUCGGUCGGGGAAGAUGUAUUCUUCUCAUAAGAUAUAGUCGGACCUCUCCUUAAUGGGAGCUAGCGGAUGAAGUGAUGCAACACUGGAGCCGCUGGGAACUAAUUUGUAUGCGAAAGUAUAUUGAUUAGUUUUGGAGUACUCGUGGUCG;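 further: selection with 25 µg/mL kanamycin versus none on LB agar overnight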
Settings: 37 °C
Yes means recorded self-splicing fitness (ln) is -2 or above; No means it is below -2.

Q: Say whether AGUUAGCAAUAUUACGAGCU shows self-splicing fitness (ln) of -2 or more.
Result: Yes

Q: Say whether AACGAGCAAUAUUACGAACC shows self-splicing fitness (ln) of -2 or more.
Result: Yes

Q: Say whether GACAAGCAAUAUUACGAGUU shows self-splicing fitness (ln) of -2 or more.
Result: No

Q: Say whether CGGUAGCAAUAUUACGUUCA shows self-splicing fitness (ln) of -2 or more.
Result: Yes

Q: Say whether GUCUAGCAAUAUUACGCUGC shows self-splicing fitness (ln) of -2 or more.
Result: No

Q: Say whether UUGCAGCAAUAUUACGCGGA shows self-splicing fitness (ln) of -2 or more.
Result: Yes

Q: Say whether CUGCAGCAAUAUUACGAGCA shows self-splicing fitness (ln) of -2 or more.
Result: No

Q: Say whether CAGUAGCAAUAUUACGGAUC shows self-splicing fitness (ln) of -2 or more.
Result: Yes

Q: Say whether GAAUAGCAAUAUUACGGGCC shows self-splicing fitness (ln) of -2 or more.
Result: Yes

----------
Field: self-splicing fitness (ln). Provide a value for each of the sequences that follow.
Experiment: self-splicing fitness, log relative to wild type (ln ratio); higher = more splicing; Tetrahymena group I intron in knt gene, E. coli kanamycin selection, DiMSum; sequences stand for … in CUCUCU…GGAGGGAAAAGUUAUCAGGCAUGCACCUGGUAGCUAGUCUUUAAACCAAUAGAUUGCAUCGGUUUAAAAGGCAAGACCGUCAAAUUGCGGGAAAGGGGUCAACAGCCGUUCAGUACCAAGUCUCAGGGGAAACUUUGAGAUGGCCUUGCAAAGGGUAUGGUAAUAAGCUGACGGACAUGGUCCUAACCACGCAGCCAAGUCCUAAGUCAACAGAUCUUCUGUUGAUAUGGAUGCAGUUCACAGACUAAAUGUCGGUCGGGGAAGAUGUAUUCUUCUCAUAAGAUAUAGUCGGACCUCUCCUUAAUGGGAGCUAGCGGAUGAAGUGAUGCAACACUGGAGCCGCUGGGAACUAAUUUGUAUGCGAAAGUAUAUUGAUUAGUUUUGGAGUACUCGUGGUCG
Conditions: 37 °C
Give bare numbers.

# annotated cases, reported self-splicing fitness (ln) shown
CAUCAGCAAUAUUACGGCGC | -0.694
CAUAAGCAAUAUUACGCCUU | -1.96

Could you tell me self-splicing fitness (ln) for each of these sequences? They are listed below.
1. CGUCAGCAAUAUUACGGUUA
2. GCUCAGCAAUAUUACGAAGU
3. UUAUAGCAAUAUUACGUCCG
4. GGGCAGCAAUAUUACGUUUA
5. GCGCAGCAAUAUUACGAUAU
6. CAGUAGCAAUAUUACGGGGG

Result:
-0.874
-0.416
-1
-0.227
-0.433
-2.02

Could you tell me self-splicing fitness (ln) for each of these sequences? They are listed below.
1. GGUGAGCAAUAUUACGGUAC
2. GAGUAGCAAUAUUACGGCGG
3. GCGUAGCAAUAUUACGUUUU
4. GAUCAGCAAUAUUACGGAUU
5. GUAGAGCAAUAUUACGAGGC
6. CUUUAGCAAUAUUACGUCCA
7. UAACAGCAAUAUUACGUCGA
8. UGUAAGCAAUAUUACGCAAU

Result:
-1.4
-2.02
-1.8
-2.52
-2.63
-0.864
0.186
-3.36

Could you tell me self-splicing fitness (ln) for each of these sequences? They are listed below.
1. CACAAGCAAUAUUACGAGUA
2. CUUGAGCAAUAUUACGAACU
3. AUUGAGCAAUAUUACGGAAU

Result:
1: -0.487; 2: -2.09; 3: -1.28

----------
Field: self-splicing fitness (ln). Provide a value for each of the sequences that follow.
Assay: self-splicing fitness, log relative to wild type (ln ratio); higher = more splicing; Tetrahymena group I intron in knt gene, E. coli kanamycin selection, DiMSum; sequences stand for … in CUCUCU…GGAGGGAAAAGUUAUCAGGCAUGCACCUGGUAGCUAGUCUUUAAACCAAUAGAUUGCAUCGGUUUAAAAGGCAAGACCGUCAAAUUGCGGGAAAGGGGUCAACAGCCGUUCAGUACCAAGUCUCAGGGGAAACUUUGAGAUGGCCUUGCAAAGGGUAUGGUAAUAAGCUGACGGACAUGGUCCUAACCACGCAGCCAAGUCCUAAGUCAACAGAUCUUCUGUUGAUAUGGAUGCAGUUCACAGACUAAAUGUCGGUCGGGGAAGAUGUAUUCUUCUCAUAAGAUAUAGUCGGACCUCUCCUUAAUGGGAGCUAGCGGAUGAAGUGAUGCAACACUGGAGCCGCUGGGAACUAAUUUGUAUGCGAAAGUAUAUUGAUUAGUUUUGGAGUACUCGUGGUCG
Details: 30 °C
Give bare numbers.

# annotated cases, reported self-splicing fitness (ln) shown
UGCUAGCAAUAUUACGCGUU | -1.7
UUGAAGCAAUAUUACGGAGC | -2.81

Could you tell me self-splicing fitness (ln) for each of these sequences? They are listed below.
1. GUUAAGCAAUAUUACGUCGG
2. GCUCAGCAAUAUUACGAAGU
3. AUCCAGCAAUAUUACGGCUG
4. UUGUAGCAAUAUUACGCUUA

Result:
1: -2.75; 2: -1.63; 3: -3.69; 4: -1.77

Could you tell me self-splicing fitness (ln) for each of these sequences? They are listed below.
1. AAUUAGCAAUAUUACGAAUA
2. AGCUAGCAAUAUUACGGAGC
3. CGGGAGCAAUAUUACGCGGA
4. GCCAAGCAAUAUUACGCCUC
5. AAUGAGCAAUAUUACGUCGG

Result:
-1.67
-2.44
-2.82
-1.32
-3.31

Could you tell me self-splicing fitness (ln) for each of these sequences? They are listed below.
1. CUUCAGCAAUAUUACGGUUC
2. UGCUAGCAAUAUUACGUUAU
3. GAUCAGCAAUAUUACGUCAG
4. GCUCAGCAAUAUUACGGUAG
5. AAUCAGCAAUAUUACGAUUA
6. UUCGAGCAAUAUUACGCACC
7. GGUAAGCAAUAUUACGGAAG

Result:
[-3.39, -2.22, -4.35, -2.79, -0.229, -3.33, -3.03]

Could you tell me self-splicing fitness (ln) for each of these sequences? They are listed below.
1. CAUAAGCAAUAUUACGUGGG
2. UUUAAGCAAUAUUACGCUCA
3. UGCCAGCAAUAUUACGUCAA
4. ACCCAGCAAUAUUACGUCAC
5. AUUCAGCAAUAUUACGAAGU
6. ACGAAGCAAUAUUACGCGUG
7. GUCAAGCAAUAUUACGUGUG
8. CUGGAGCAAUAUUACGGGGA

Result:
-3.38
-0.755
-1.93
-3.29
-1.52
-1.13
-2.69
-3.21

----------
Assay: self-splicing fitness, log relative to wild type (ln ratio); higher = more splicing; Tetrahymena group I intron in knt gene, E. coli kanamycin selection, DiMSum; sequences stand for … in CUCUCU…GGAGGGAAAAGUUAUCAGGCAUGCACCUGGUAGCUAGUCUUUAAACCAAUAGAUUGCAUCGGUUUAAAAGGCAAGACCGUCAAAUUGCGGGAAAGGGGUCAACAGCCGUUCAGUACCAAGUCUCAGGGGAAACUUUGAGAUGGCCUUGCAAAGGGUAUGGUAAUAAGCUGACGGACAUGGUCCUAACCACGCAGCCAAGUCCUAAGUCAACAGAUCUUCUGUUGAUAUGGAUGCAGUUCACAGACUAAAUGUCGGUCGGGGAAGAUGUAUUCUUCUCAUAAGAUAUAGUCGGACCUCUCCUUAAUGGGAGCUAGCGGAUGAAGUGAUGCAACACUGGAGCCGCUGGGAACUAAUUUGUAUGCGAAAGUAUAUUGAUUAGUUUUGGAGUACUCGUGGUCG
Conditions: 30 °C
Endpoint label: self-splicing fitness (ln)
One number for each entry.

UUUCAGCAAUAUUACGUACU | -1.49
GCACAGCAAUAUUACGUUAG | -2.6
CCGCAGCAAUAUUACGGUGC | -2.98
GGGGAGCAAUAUUACGCUGA | -3.2
AUCUAGCAAUAUUACGUAUC | -3.29

Could you tell me self-splicing fitness (ln) for each of these sequences? They are listed below.
1. UGUCAGCAAUAUUACGACGG
2. UUCGAGCAAUAUUACGCGUA
3. GGGUAGCAAUAUUACGCCGA
4. AUUUAGCAAUAUUACGUCCU
5. GCACAGCAAUAUUACGCAAU
6. GUUUAGCAAUAUUACGAGGU

Result:
1. -1.06
2. -1.94
3. -0.784
4. -0.237
5. -1.14
6. -3.03

Could you tell me self-splicing fitness (ln) for each of these sequences? They are listed below.
1. GUUAAGCAAUAUUACGUCAA
2. GGUAAGCAAUAUUACGCAGU
3. CUGUAGCAAUAUUACGGUUA
4. GCUUAGCAAUAUUACGUUCC
5. GAACAGCAAUAUUACGUACC
6. CACGAGCAAUAUUACGGACU
7. GUGUAGCAAUAUUACGUCGU
8. CUGAAGCAAUAUUACGCCCU

Result:
1: -1.38; 2: -1.51; 3: -2.17; 4: -0.313; 5: -0.94; 6: -3.12; 7: -1.67; 8: -3.03

Could you tell me self-splicing fitness (ln) for each of these sequences? They are listed below.
1. ACAGAGCAAUAUUACGUGAC
2. CUACAGCAAUAUUACGCUCG
3. ACCGAGCAAUAUUACGUGAG
4. ACCGAGCAAUAUUACGGAUA
5. CAAGAGCAAUAUUACGCAUG

Result:
1. -3.76
2. -1.49
3. -2.27
4. -2.8
5. -3.69

Could you tell me self-splicing fitness (ln) for each of these sequences? They are listed below.
1. GACCAGCAAUAUUACGGUCC
2. CUAUAGCAAUAUUACGCACG
3. CGGCAGCAAUAUUACGGGCC
4. UUAUAGCAAUAUUACGGCAG
5. UAUCAGCAAUAUUACGCGUU
6. CCCCAGCAAUAUUACGGUGU
7. UACCAGCAAUAUUACGACCG
8. UGCAAGCAAUAUUACGGCGC

Result:
1: -2.95; 2: -0.606; 3: -1.55; 4: -0.689; 5: -1.7; 6: -3.26; 7: -0.151; 8: -3.27

Could you tell me self-splicing fitness (ln) for each of these sequences? They are listed below.
1. AGCCAGCAAUAUUACGUUAU
2. UGUUAGCAAUAUUACGAGUC

Result:
1: -3.94; 2: -4.22
